target: Histone deacetylase 3 (Homo sapiens); experiment: Inhibition of human recombinant full length HDAC3 using (Ac)-Lys-Tyr-Lys(-acetyl)-AMC substrate after 30 mins
Sequence (O15379 whole entry): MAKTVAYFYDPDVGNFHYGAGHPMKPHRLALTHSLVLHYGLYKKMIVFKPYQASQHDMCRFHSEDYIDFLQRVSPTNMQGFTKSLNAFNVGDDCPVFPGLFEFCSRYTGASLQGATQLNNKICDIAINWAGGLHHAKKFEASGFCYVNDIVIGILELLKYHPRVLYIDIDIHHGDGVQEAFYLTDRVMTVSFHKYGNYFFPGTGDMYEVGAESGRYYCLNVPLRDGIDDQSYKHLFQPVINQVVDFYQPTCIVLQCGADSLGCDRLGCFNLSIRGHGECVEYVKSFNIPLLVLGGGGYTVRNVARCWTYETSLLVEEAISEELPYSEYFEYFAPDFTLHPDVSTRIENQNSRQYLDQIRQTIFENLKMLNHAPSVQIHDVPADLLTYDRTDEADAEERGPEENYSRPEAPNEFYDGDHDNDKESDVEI
experimental_endpoint: IC50 (nM)

structure_notation	experimental_endpoint	value_units	test_result
O=C(CCCCCCC(=O)Nc1cc2c(Nc3ccc(F)c(Cl)c3)ncnc2s1)NO	IC50	nM	17.9

[A] Cc1ccc(Nc2ncnc3sc(NC(=O)CCCCCC(=O)NO)cc23)cc1C
[B] O=C(CCCCCCC(=O)Nc1cc2c(Cl)ncnc2s1)NO
[C] CN(C)c1ccc(Nc2ncnc3sc(NC(=O)CCCCCCC(=O)NO)cc23)cc1F
[D] CCN(CC)c1ccc(Nc2ncnc3sc(NC(=O)CCCCCCC(=O)NO)cc23)cc1
[E] O=C(CCCCC(=O)Nc1cc2c(Nc3ccc(Cl)c(C(F)(F)F)c3)ncnc2s1)NO
// smallest IC50 at index 0, largest at the end Submit the labels in the order that the ranking request calls for.
C, A, B, D, E

[P] O=C(CCCCCCC(=O)Nc1cc2c(Nc3ccc(Cl)cc3F)ncnc2s1)NO
[Q] O=C(CCCCCC(=O)Nc1cc2c(Nc3ccccc3)ncnc2s1)NO
// task: argmin of IC50 over [ P , Q ] # respond with the chosen item's label
P
(P: 14.5 nM, Q: 20.8 nM)

[I] O=C(CCCCCCC(=O)Nc1cc2c(Nc3ccc(N4CCCC4)c(F)c3)ncnc2s1)NO
[II] CCN(CC)c1ccc(Nc2ncnc3sc(NC(=O)CCCCCCC(=O)NO)cc23)cc1F
Quick check, higher IC50 between I and II ? Record your answer as the label of the chosen record.
I

[a] O=C(CCCCCCC(=O)Nc1cc2c(Nc3ccc(F)cc3F)ncnc2s1)NO
[b] O=C(CCCCCCC(=O)Nc1cc2c(Nc3cccc(Cl)c3)ncnc2s1)NO
Between a and b , which one shows the larger IC50 value? Your answer should be the label attached to the chosen record.
a
(a: 16.9 nM, b: 6.46 nM)
